Where do these numbers come from? They come from PubChem BioAssay AID623934.

system: West Nile virus infected cells, antiviral cytopathic protection; assay: West Nile virus antiviral cytopathic protection, dose response, cell-based, EC_3 (AID 623934)
pEC50: −log10 of the molar value.

- structureNotation: "O=C(CSc1nc2c(F)cccc2c(=O)n1-c1cc(Cl)cc(Cl)c1)Nc1ccc2c(c1)CCC2"
  pEC50: 4.94
- structureNotation: "O=C(CSc1nc2ccccc2c(=O)n1-c1ccc(Cl)c(Br)c1)Nc1ccc2c(c1)CCC2"
  pEC50: 4.86
- structureNotation: "O=C(CSc1nc2c(F)cccc2c(=O)n1-c1ccc(Cl)c(Cl)c1)Nc1ccc2c(c1)CCC2"
  pEC50: 5.03
- structureNotation: "Cc1cc(-n2c(SCC(=O)Nc3ccc4c(c3)CCC4)nc3ccccc3c2=O)ccc1Cl"
  pEC50: 5.37
- structureNotation: "Cc1ccc(-n2c(SCC(=O)Nc3ccc4c(c3)CCC4)nc3ccccc3c2=O)cc1Br"
  pEC50: 5.08
- structureNotation: "O=C(CSc1nc2cccc(F)c2c(=O)n1-c1ccc(Cl)c(Cl)c1)Nc1ccc2c(c1)CCC2"
  pEC50: 4.81
- structureNotation: "O=C(CSc1nc2ccccc2c(=O)n1-c1ccccc1)Nc1ccc2c(c1)CCC2"
  pEC50: 4.57
- structureNotation: "O=C(CSc1nc2ccccc2c(=O)n1-c1cc(F)c(F)cn1)Nc1ccc2c(c1)CCC2"
  pEC50: 4.73

====

system: West Nile virus infected cells, antiviral cytopathic protection; assay: West Nile virus antiviral cytopathic protection, dose response, cell-based, EC_3 (AID 623934)
pEC50: −log10 of the molar value.
The label depends only on pEC50: T if it is at least 5, F if it is smaller.

- structureNotation: "O=C(CSc1nc2ccccc2c(=O)n1-c1cc(Cl)c(F)cn1)Nc1ccc2c(c1)CCC2"
  assignedLabel: "F"
- structureNotation: "O=C(CSc1nc2c(F)cccc2c(=O)n1-c1ccccc1)Nc1ccc2c(c1)CCC2"
  assignedLabel: "F"
- structureNotation: "Cc1cc(-n2c(SCC(=O)Nc3ccc4c(c3)CCC4)nc3ccccc3c2=O)ccc1F"
  assignedLabel: "T"
